Please go through the items and note down their self-splicing fitness (ln).
Test: self-splicing fitness, log relative to wild type (ln ratio); higher = more splicing; Tetrahymena group I intron in knt gene, E. coli kanamycin selection, DiMSum; sequences stand for … in CUCUCU…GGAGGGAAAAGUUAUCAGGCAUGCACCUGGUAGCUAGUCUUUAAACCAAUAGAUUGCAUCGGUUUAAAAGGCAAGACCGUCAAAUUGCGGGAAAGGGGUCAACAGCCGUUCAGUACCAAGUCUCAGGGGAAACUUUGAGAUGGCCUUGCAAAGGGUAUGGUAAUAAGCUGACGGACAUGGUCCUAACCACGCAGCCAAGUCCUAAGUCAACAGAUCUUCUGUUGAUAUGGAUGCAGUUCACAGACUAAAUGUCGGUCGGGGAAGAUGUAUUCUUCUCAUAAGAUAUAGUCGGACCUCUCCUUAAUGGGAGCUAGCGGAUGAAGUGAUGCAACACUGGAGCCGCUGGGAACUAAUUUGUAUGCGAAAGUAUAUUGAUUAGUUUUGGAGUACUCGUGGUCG;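 further: selection with 25 µg/mL kanamycin versus none on LB agar overnight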
Conditions: 30 °C
Give bare numbers.

Check out these entries, answers already filled in.
- SEQUENCE STRING: "CUGAAGCAAUAUUACGGUCC"
  self-splicing fitness (ln): -3.78
- SEQUENCE STRING: "CGCUAGCAAUAUUACGUACG"
  self-splicing fitness (ln): -1.66
- SEQUENCE STRING: "UUAUAGCAAUAUUACGGUCA"
  self-splicing fitness (ln): -0.871
- SEQUENCE STRING: "GCAUAGCAAUAUUACGGCUG"
  self-splicing fitness (ln): -1.97
- SEQUENCE STRING: "GUUUAGCAAUAUUACGAAGG"
  self-splicing fitness (ln): -2.93

Take each entry in turn and give its self-splicing fitness (ln).
1. GAAAAGCAAUAUUACGUUAG
2. GGCUAGCAAUAUUACGUUCG

[-2.27, -0.933]

Take each entry in turn and give its self-splicing fitness (ln).
1. CGACAGCAAUAUUACGGGCC
2. CUCGAGCAAUAUUACGUGCA
3. GGAAAGCAAUAUUACGGGCU
4. UCAUAGCAAUAUUACGGGUU
5. GUAAAGCAAUAUUACGCCGA
6. CAAUAGCAAUAUUACGGCGG
7. GCCGAGCAAUAUUACGGAGC

1. -2.97
2. -2.2
3. -1.29
4. -4.83
5. -0.859
6. 0.429
7. -2.69
